Cited source: ChEMBL document CHEMBL4665734

PROTOCOL NOTES: Lipophilicity, logD of the compound at pH 7.4
CONDITION NOTES: buffer, pH 7.4, logD
Starred links: 1 amine or outer side, 2 acyl side, 3 side chain; linkers in the order of their positions; H or OH if unused. Non-standard residues stand in square brackets, D forms with d. Residues, ends and D or L forms follow the SMILES beside them. *: point of attachment. X1 = CCCCCC[C@@H](OC[C@@H](C)N[*:1])[C@@H](C)C(=O)[*:2]; Gly(cHept) = N[C@H](C(=O)O)C1CCCCCC1; NMeL = CN[C@@H](CC(C)C)C(=O)O; Chg = N[C@H](C(=O)O)C1CCCCC1; NMeNva = CCC[C@H](NC)C(=O)O; Propyl(3-NMe2) = CN(C)CCC*; X2 = NC[C@H]1C[C@H](*)C1; Dap = NC[C@H](N)C(=O)O; X11 = NCCCC*
// logD lookup, one value per entry
// return a plain number; no unit text

CCCCCC[C@H]1OC[C@@H](C)NC(=O)[C@H](CO[C@H]2C[C@H](CN)C2)NC(=O)[C@H](CN)NC(=O)[C@H](C2CCCCCC2)NC(=O)[C@H](CCC)N(C)C(=O)[C@@H]1C (cyclo([Dap]S(X2)[X1][NMeNva][Gly(cHept)])); 1.6

// field: logD; key: CCC[C@H]1C(=O)N[C@@H](C2CCCCCC2)C(=O)N[C@@H](CN)C(=O)N[C@@H]([C@H](C)O)C(=O)NCC(=O)O[C@H](C[C@@H]2CC[C@@H]3CC[C@H]2C3)[C@@H](C)C(=O)N1C ; value = 3.1

For record CCCCCC[C@H]1OC[C@@H](C)NC(=O)[C@H](COCCCN(C)C)NC(=O)[C@H](CN)NC(=O)[C@H](C2CCCCC2)NC(=O)[C@H](CC(C)C)N(C)C(=O)[C@@H]1C (cyclo([Chg][Dap]S(Propyl(3-NMe2))[X1][NMeL])) the listed logD is 2.1

What the record says about CCCCCC[C@H]1OC(=O)CNC(=O)[C@H]([C@H](C)O)NC(=O)[C@H](CN)NC(=O)[C@H](C2CCCCCC2)NC(=O)[C@H](CC(C)C)N(C)C(=O)[C@@H]1C : logD is 3.4

logD for CCCCCC[C@H]1OC[C@@H](C)NC(=O)[C@H](COCCCCN)NC(=O)[C@H](CN)NC(=O)[C@H](C2CCCCCC2)NC(=O)[C@H](CCC)N(C)C(=O)[C@@H]1C (cyclo([Dap]S(X11)[X1][NMeNva][Gly(cHept)])) is 1.8

The compound identified as CC[C@@H](C)[C@@H]1NC(=O)[C@H](CC(C)C)N(C)C(=O)[C@H](C)[C@@H](CCCCCC(F)(F)F)OC(=O)CNC(=O)[C@H]([C@H](C)O)NC(=O)[C@H](CN)NC1=O registered its logD at 2
